molecular target: CRF type I(CRF-I) receptor (Homo sapiens, UniProt P34998); construct: expressed in transfected cells; membrane fraction; test: in vitro Binding Assay using membrane fraction of recombinant cell (6EF2B) expressing CRF receptor gene (SPA method); conditions: IC50(nM) [experiment 1], 125I-Tyr0-human/rat CRF, membrane fraction of 6EF2B cells (derived from Hela cell)
Sequence (P34998 24-415): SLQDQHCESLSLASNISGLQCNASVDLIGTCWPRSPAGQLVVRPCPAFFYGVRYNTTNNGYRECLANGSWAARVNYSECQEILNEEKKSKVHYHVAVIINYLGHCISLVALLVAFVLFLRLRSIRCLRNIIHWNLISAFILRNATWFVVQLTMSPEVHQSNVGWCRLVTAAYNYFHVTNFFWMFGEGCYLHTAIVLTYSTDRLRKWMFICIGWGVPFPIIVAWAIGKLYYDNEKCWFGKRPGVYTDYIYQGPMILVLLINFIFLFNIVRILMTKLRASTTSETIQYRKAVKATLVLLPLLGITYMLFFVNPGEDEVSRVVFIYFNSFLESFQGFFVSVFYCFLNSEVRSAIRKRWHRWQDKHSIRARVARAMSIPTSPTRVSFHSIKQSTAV
parameter: IC50

Could you tell me which IC50 is on file for CCc1cc(S(=O)(=O)N(CC)CC)cc(NC(=O)c2cc(Cl)c(OP(=O)(O)O)c(Cl)c2)c1OC.O=P(O)(O)O ? 278 nM

----------
target: CRF type I(CRF-I) receptor (Homo sapiens, UniProt P34998); construct: expressed in transfected cells; membrane fraction; test: in vitro Binding Assay using membrane fraction of recombinant cell (6EF2B) expressing CRF receptor gene (SPA method); conditions: 125I-Tyr0-human/rat CRF, membrane fraction of 6EF2B cells (derived from Hela cell), read-out: IC50(nM) [experiment 1]
parameter: IC50
I'd appreciate it if you included the unit after the number.

Could you tell me which IC50 is on file for CCc1cc(S(=O)(=O)N(CC)CC)cc(NC(=O)c2cc(Cl)c(O)c(Cl)c2)c1OC [Example 6] ? 218 nM

Queued: CCN(CC)S(=O)(=O)c1cc(NC(=O)c2cc(Cl)c(O)c([N+](=O)[O-])c2)c(OC)c(OC)c1 [Example 11] 123 nM

Queued: CCc1cc(S(=O)(=O)N(CC)CC)cc(NC(=O)c2cc(Cl)c([O-])c(Cl)c2)c1OC.[K+] [Example 7] 263 nM

Queued: CCc1cc(S(=O)(=O)N(CC)CC)cc(NC(=O)c2cc(Cl)c([O-])c(Cl)c2)c1OC.[Na+] [Example 8] 195 nM

Queued: CCN(CC)S(=O)(=O)c1cc(NC(=O)c2cc(Cl)c(O)c(Cl)c2)c(OC)c(OC)c1 [Example 10] 165 nM

Queued: CCN(CC)S(=O)(=O)c1cc(NC(=O)c2cc(Cl)c(O)c(Cl)c2)c(OC)c(N(C)C)c1 [Example 12] 57 nM
